ROCK2 (Homo sapiens) data, read-out IC50
Sequence (O75116 whole entry, species assumed): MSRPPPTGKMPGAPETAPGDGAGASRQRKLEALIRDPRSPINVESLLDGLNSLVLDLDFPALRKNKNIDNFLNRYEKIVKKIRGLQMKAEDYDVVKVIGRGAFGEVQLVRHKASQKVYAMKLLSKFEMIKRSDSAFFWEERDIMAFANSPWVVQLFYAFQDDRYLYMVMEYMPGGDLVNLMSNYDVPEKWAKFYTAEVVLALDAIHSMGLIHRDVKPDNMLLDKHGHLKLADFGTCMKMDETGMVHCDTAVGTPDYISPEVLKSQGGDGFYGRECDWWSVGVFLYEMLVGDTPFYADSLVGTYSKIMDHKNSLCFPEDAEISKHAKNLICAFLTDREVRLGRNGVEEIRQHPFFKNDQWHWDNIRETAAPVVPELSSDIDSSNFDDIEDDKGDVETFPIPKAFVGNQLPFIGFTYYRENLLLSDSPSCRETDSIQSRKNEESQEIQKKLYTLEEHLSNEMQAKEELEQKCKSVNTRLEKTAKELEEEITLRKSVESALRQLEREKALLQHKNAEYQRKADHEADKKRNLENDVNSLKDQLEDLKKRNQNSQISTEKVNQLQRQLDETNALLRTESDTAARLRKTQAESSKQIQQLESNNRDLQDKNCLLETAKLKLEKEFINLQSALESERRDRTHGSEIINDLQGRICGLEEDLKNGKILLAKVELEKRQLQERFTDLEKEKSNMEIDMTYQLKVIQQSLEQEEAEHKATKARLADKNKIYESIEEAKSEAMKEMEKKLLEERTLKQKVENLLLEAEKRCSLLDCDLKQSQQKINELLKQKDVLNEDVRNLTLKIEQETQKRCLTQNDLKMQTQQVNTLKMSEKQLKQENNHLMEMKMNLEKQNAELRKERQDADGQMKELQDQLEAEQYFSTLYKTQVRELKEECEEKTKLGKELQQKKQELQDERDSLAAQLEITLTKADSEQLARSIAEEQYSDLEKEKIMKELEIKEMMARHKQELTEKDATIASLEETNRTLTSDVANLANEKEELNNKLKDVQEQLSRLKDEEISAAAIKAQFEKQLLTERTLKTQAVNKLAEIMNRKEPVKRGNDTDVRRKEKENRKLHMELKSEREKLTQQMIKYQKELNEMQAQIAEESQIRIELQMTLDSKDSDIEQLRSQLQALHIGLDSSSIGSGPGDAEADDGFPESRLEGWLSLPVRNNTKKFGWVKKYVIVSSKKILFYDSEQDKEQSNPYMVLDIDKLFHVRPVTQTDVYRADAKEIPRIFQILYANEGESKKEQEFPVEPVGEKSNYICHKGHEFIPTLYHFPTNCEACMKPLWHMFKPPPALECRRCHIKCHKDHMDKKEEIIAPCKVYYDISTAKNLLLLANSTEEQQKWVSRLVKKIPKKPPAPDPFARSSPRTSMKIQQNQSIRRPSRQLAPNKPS

Use the examples below as a reference point.
>>> measured_result("O=C(NC1CC2(C1)CC(c1n[nH]c(=O)c3ccccc13)C2)c1ccn(CC(F)(F)F)n1 (stereo not shown) [Example 7]")
"5.1 to 15 nM"
>>> measured_result("Cc1nc(N2CCC(F)(F)C2)sc1C(=O)NC1CC2(C1)CC(c1n[nH]c(=O)c3ccccc13)C2 (stereo not shown) [Example 41]")
"2.01 to 5 nM"
>>> measured_result("[H][C@]1(c2n[nH]c(=O)c3ccccc32)C[C@]2(C[C@@H](NC(=O)c3cc4cccc(F)c4[nH]3)C2)C1 (stereo partly shown) [Example 333]")
"5.1 to 15 nM"

Now examine the next entry.
Which measured IC50 value corresponds to CC(C)(O)COc1ccc2c(C(=O)NC3CC4(C3)CC(c3n[nH]c(=O)c5ccccc35)C4)cnn2c1C(N)=O (stereo not shown) [Example 110] ? 15.1 to 100 nM
